Biological target: Human recombinant PDE2A (hPDE2A) (Homo sapiens)
Construct: His tag (inferred from metal chelate purification); made in house; host or cells: Sf9 insect cells (baculovirus)
Test: In vitro assay PDE2A (SPA, 3H-cGMP hydrolysis)
Assay type: biochemical
Details: human recombinant PDE2A; read-out: hPDE2A Emax
Property Label: Emax (%)
Give the value, in units of %, as a plain number.

A selection of reference data follows.
Compound	Study System	Result
C[C@@H]1CCN(C(=O)c2ccc(F)c(C3CC3)c2)C[C@H]1c1cc(C(F)F)nc2ncnn12	Human recombinant PDE2A (hPDE2A) (Homo sapiens)	100
CCCC[C@H]1CCN(C(=O)c2cc(C)nc(C)c2)C[C@H]1c1cc(C(F)F)nc2ncnn12 (mixture of isomers)	Human recombinant PDE2A (hPDE2A) (Homo sapiens)	100
C[C@@H]1CCN(C(=O)c2cc(-c3ccco3)nn2C)C[C@H]1c1cc(C(F)F)nc2ncnn12	Human recombinant PDE2A (hPDE2A) (Homo sapiens)	100
C[C@@H]1CCN(C(=O)c2c[nH]c3ccc(F)cc23)C[C@H]1c1cc(C(F)F)nc2ncnn12	Human recombinant PDE2A (hPDE2A) (Homo sapiens)	101
Cc1cc(C(=O)N2[C@H]3CC[C@H](c4cc(C(F)F)nc5ncnn45)[C@@H]2CC3)cc(C)n1	Human recombinant PDE2A (hPDE2A) (Homo sapiens)	101
C[C@]1(c2cc(C(F)F)nc3ncnn23)CCCN(C(=O)c2ccc3occc3c2)C1 (single isomer, unassigned)	Human recombinant PDE2A (hPDE2A) (Homo sapiens)	57

Next:
Notebook: C[C@@H]1CCN(C(=O)c2ccc(C3CC3)c(C3CC3)c2)C[C@H]1c1cc(C(F)F)nc2ncnn12 , Emax read as 100

====

Target: Human recombinant PDE2A (hPDE2A) (Homo sapiens, UniProt O00408)
Construct: His tag (inferred from metal chelate purification); made in house; host or cells: Sf9 insect cells (baculovirus)
Sequence (O00408 whole entry): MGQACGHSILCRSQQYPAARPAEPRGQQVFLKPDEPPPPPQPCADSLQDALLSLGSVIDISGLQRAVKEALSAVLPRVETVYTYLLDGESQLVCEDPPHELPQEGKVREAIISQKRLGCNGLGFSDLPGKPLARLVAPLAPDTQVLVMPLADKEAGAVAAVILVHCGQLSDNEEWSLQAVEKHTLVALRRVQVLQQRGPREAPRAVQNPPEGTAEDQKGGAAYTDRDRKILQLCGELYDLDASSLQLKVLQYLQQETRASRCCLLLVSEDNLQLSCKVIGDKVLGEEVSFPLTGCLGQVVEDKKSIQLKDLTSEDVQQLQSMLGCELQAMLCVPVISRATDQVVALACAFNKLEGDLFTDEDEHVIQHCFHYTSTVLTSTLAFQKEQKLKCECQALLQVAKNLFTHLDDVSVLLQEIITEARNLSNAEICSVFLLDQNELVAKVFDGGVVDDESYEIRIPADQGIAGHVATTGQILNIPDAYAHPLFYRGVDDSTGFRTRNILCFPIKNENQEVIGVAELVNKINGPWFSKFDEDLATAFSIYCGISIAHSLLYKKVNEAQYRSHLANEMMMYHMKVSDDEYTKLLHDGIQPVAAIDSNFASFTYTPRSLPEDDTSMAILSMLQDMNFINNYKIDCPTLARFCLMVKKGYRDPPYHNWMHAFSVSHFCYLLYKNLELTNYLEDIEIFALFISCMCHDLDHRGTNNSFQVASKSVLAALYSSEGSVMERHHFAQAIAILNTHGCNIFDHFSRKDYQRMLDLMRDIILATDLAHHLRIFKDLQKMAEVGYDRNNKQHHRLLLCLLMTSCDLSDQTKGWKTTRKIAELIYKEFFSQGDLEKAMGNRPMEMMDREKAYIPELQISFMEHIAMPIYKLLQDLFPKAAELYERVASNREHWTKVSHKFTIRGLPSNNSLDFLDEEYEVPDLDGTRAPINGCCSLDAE
Experiment: In vitro assay PDE2A (SPA, 3H-cGMP hydrolysis)
Type: biochemical
Conditions: read-out: hPDE2A pIC50 (converted)
Property Label: IC50

Smiles String	IC50
Cc1csc(C(=O)N2CC[C@@H](C)[C@H](c3cc(C(F)F)nc4ncnn34)C2)c1Cl	38 nM

Notebook: O=C(c1ccc(C(F)(F)F)cc1)N1[C@H]2CC[C@H](c3cc(C(F)F)nc4ncnn34)[C@@H]1CC2 , IC50 read as 70.8 nM

Notebook: C[C@@H]1CCN(C(=O)c2cnc3c(F)cccc3c2)C[C@H]1c1cc(C(F)F)nc2ncnn12 , IC50 read as 1.15 nM

Notebook: C[C@@H]1CCN(C(=O)c2ccncc2N)C[C@H]1c1cc(C(F)F)nc2ncnn12 , IC50 read as 30.2 nM

====

Biological target: Human recombinant PDE10A (hPDE10A) (Homo sapiens, UniProt Q9Y233)
Construct: His tag (inferred from metal chelate purification); made in house; host or cells: Sf9 insect cells (baculovirus)
Sequence (Q9Y233 267-1055): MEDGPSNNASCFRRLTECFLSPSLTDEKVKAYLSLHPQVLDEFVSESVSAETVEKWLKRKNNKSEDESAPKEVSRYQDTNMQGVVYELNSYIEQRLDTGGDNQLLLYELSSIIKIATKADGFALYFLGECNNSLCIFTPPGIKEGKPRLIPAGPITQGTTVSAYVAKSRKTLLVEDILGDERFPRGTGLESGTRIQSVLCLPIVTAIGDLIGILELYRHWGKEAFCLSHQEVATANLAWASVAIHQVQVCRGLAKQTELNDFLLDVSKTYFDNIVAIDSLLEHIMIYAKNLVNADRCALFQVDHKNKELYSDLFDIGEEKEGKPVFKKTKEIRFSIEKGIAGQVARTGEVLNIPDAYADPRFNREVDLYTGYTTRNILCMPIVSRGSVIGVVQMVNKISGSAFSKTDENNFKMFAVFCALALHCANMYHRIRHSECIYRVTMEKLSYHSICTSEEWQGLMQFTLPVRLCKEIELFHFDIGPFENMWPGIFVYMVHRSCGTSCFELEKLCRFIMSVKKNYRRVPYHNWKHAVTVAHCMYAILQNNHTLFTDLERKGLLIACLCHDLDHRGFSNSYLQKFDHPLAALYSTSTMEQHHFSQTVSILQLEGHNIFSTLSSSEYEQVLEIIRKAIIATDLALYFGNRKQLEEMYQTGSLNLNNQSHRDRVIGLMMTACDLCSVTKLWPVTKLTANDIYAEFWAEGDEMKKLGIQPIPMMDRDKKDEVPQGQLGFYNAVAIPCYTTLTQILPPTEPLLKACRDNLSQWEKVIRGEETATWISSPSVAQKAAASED
Test: In vitro assay PDE10A, human clone (SPA, 3H-cAMP hydrolysis)
Format: biochemical
Settings: human clone (h), default; read-out: hPDE10A2 Emax
Property Label: Emax (%)
Give the value, in units of %, as a plain number.

A selection of reference data follows.
Compound	Study System	Units Of Measure	Emax
C[C@@H]1CCN(C(=O)c2ccc3scnc3c2)C[C@H]1c1cc(C(F)F)nc2ncnn12	Human recombinant PDE10A (hPDE10A) (Homo sapiens, UniProt Q9Y233)	%	98
COc1c(C)cc(C(=O)N2CC[C@@H](C)[C@H](c3cc(C(F)F)nc4ncnn34)C2)cc1C	Human recombinant PDE10A (hPDE10A) (Homo sapiens, UniProt Q9Y233)	%	98
Cc1cc(C)nc(C(=O)N2CC[C@@H](C)[C@H](c3cc(C(F)F)nc4ncnn34)C2)c1	Human recombinant PDE10A (hPDE10A) (Homo sapiens, UniProt Q9Y233)	%	84
COc1cc(C(=O)N2CC[C@@H](C)[C@H](c3cc(C(F)F)nc4ncnn34)C2)c(F)cn1	Human recombinant PDE10A (hPDE10A) (Homo sapiens, UniProt Q9Y233)	%	93
Cc1cc([C@@H]2CN(C(=O)c3cnc4ccc(C(F)(F)F)cn34)CC[C@H]2C)n2ncnc2n1	Human recombinant PDE10A (hPDE10A) (Homo sapiens, UniProt Q9Y233)	%	98

Notebook: C[C@@H]1CCN(C(=O)c2cc3c(nc2Cl)CCCC3)C[C@H]1c1cc(C(F)F)nc2ncnn12 , Emax read as 84

Notebook: Cc1cc([C@@H]2CN(C(=O)c3ccn(C)c3)CC[C@H]2C)n2ncnc2n1 , Emax read as 99

Notebook: C[C@@H]1CCN(C(=O)c2ccncc2F)C[C@H]1c1cc(C(F)F)nc2ncnn12 , Emax read as 72

Notebook: Cc1c(C(=O)N2CC[C@@H](C)[C@H](c3cc(C(F)F)nc4ncnn34)C2)ccnc1Cl , Emax read as 75

Notebook: C[C@]1(c2cc(C(F)F)nc3ncnn23)CCCN(C(=O)c2ccc3c(ccn3CCF)c2)C1 (single isomer, unassigned) , Emax read as 13

Notebook: C[C@@H]1CCN(C(=O)c2ccncn2)C[C@H]1c1cc(C(F)F)nc2ncnn12 , Emax read as 48

Notebook: COc1cc(C(=O)N2CC[C@@H](C)[C@H](c3cc(C(F)F)nc4ncnn34)C2)cc(C)n1 , Emax read as 98
